Tested on: AncSZ
Measurement notes: phosphorylation enrichment, bacterial display (enrichment ratio); higher = better substrate or ligand; peptides without Tyr show the background
Readings of phosphorylation enrichment for the listed sequences
Give a plain numeric answer without units written out.

Sample records with phosphorylation enrichment:
item_sequence="PNRILYRDFRQ [MYH7_Y715_G716R]" measured_number=0.633
item_sequence="MASTSYDYCRV [BST2_Y6]" measured_number=1.11
item_sequence="ADRNHYRRYRR [YBX1_Y145_P149R]" measured_number=0.619

The sequence listed as SNMPSYSGHFT [GRIN2A_Y1224_T1223S] has a reported phosphorylation enrichment of 0.476

The sequence listed as VEFAKYGSLQG [RET_Y809_R813Q_YF] has a reported phosphorylation enrichment of 0.663

The sequence listed as GCLSKYSGVFS [TUBGCP6_Y1624_V1621L] has a reported phosphorylation enrichment of 0.778

The sequence listed as QRIHDYYEHRY [HCN4_Y554] has a reported phosphorylation enrichment of 1.25

----------
Tested target: c-Src SH2
Measurement notes: SH2 binding enrichment of the phosphorylated peptide, bacterial display (enrichment ratio); higher = better substrate or ligand; peptides without Tyr show the background
Measurement name: SH2 binding enrichment
Give a plain numeric answer without units written out.

Sample records with SH2 binding enrichment:
item_sequence="SLHPGYNFRFA [P2RX7_Y291_Y288H_YF]" measurement_name="SH2 binding enrichment" measured_number=0.703
item_sequence="ARRMEYLASQK [FGFR2_Y616_G613R]" measurement_name="SH2 binding enrichment" measured_number=0.469
item_sequence="AFLLLYFNDTH [BMP15_Y235]" measurement_name="SH2 binding enrichment" measured_number=0.566
item_sequence="MPIPMYDASQA [CARMIL1_Y637]" measurement_name="SH2 binding enrichment" measured_number=0.537
item_sequence="PHQTIYGALMI [FGF23_Y70_S71G]" measurement_name="SH2 binding enrichment" measured_number=0.341

Observed SH2 binding enrichment, c-Src SH2, DDLEVYLKHLL [SACS_Y3477] : 0.544

Observed SH2 binding enrichment, c-Src SH2, LENSTYQYICV [CRB1_Y760_R764C] : 0.522

Observed SH2 binding enrichment, c-Src SH2, KGFCGYSFDDI [TMEM230_Y110_R108C_YF] : 0.983

Observed SH2 binding enrichment, c-Src SH2, KELAPYDENWF [RPS19_Y48] : 0.767

Observed SH2 binding enrichment, c-Src SH2, AKLDEYIAIAK [RCOR3_Y46] : 0.434

Observed SH2 binding enrichment, c-Src SH2, SSQHRYSTPHA [RAF1_Y232] : 2.11

Observed SH2 binding enrichment, c-Src SH2, `TENAGYFFRIS` : 0.432

Observed SH2 binding enrichment, c-Src SH2, PTYEHYANSTQ [SLC12A3_Y70] : 2.47

Observed SH2 binding enrichment, c-Src SH2, SLNEEYTKNKT [MSH2_Y563] : 0.621

Observed SH2 binding enrichment, c-Src SH2, QEITTYRRLLE [KRT14_Y415_A413T] : 0.493

Observed SH2 binding enrichment, c-Src SH2, EEQKKYYNAVK [SCN5A_Y1494_M1498V] : 0.584

Observed SH2 binding enrichment, c-Src SH2, VQDPAYLRDID [OPRK1_Y369] : 0.564

Observed SH2 binding enrichment, c-Src SH2, TARWEYMHSPS [CPOX_Y429] : 0.688

Observed SH2 binding enrichment, c-Src SH2, PRDGEYFTLQI [TP53_Y327_L323R] : 0.405

Observed SH2 binding enrichment, c-Src SH2, GADAIYDHVNE [UQCR10_Y44_I47V] : 0.523

Observed SH2 binding enrichment, c-Src SH2, GCAGKYIAMVM [CYP19A1_Y441] : 0.603

----------
Tested target: Grb2 SH2 (UniProt P62993)
Sequence (P62993 whole entry, looked up): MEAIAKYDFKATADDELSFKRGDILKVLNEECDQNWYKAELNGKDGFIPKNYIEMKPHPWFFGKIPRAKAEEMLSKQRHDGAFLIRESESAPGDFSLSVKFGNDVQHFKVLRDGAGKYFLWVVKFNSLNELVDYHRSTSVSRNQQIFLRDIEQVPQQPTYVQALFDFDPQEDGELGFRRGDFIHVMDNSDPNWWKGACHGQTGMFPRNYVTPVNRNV
Measurement notes: SH2 binding enrichment of the phosphorylated peptide, bacterial display (enrichment ratio); higher = better substrate or ligand; peptides without Tyr show the background
Measurement name: SH2 binding enrichment
Give a plain numeric answer without units written out.

item_sequence="TQFWRYFAGNL [SLC25A5_Y112_L111R]" measured_number=0.977
item_sequence="RIVEIYSRRLR [GCH1_Y175_Q180R]" measured_number=0.761
item_sequence="VNFGAYINFFK [GLB1_Y488_D491Y_YF]" measured_number=0.918
item_sequence="GDYLSYREFHL [ERBIN_Y1107_S1112L]" measured_number=0.84
item_sequence="KLIETYFSKNF [PLP1_Y50_YF]" measured_number=0.9
item_sequence="STTSDYQWDVS [MTDH_Y364]" measured_number=0.921
item_sequence="NTGVFYDLFGG [PTPN11_Y63_D61V_YF]" measured_number=0.59
item_sequence="PLDEEYFTLQI [TP53_Y327_G325E]" measured_number=0.891

The sequence listed as KFGTNYRVGSS [CPO_Y278_YF] has a reported SH2 binding enrichment of 1.23

The sequence listed as KQRKEYMHRRQ [IQGAP2_Y710] has a reported SH2 binding enrichment of 0.78

----------
Readings of phosphorylation enrichment for the listed sequences
Tested target: Fyn (UniProt P06241)
Sequence (P06241 whole entry, looked up): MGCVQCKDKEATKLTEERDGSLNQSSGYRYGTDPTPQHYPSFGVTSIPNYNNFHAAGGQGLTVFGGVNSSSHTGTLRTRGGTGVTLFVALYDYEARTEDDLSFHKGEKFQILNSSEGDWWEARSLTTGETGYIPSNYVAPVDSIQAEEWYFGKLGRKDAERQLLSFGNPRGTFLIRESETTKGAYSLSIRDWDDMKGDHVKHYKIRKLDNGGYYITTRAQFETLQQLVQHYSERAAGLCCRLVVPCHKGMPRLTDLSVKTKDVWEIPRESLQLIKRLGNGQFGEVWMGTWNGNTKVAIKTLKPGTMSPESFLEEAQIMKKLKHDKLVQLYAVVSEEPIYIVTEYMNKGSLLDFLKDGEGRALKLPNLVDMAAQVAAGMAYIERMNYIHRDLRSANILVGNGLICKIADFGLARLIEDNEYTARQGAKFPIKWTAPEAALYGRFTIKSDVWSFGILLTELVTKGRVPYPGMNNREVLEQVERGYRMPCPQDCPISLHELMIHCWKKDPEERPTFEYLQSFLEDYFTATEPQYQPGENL
Measurement notes: phosphorylation enrichment, bacterial display (enrichment ratio); higher = better substrate or ligand; peptides without Tyr show the background
Give a plain numeric answer without units written out.

Sample records with phosphorylation enrichment:
item_sequence="IGVGSYSVCKR [RPS6KA3_Y433]" measured_number=0.317
item_sequence="AFLLLYFNDTH [BMP15_Y235]" measured_number=0.445
item_sequence="HNMPIYEGYAL [ACTA1_Y168_V165M]" measured_number=13.1

The sequence listed as GKSHIYFWTLD [EML2_Y230_E235D] has a reported phosphorylation enrichment of 0.514

The sequence listed as ARKRKYFKKHE [NFIX_Y40] has a reported phosphorylation enrichment of 0.561

The sequence listed as LTERGYSFVTT [ACTA1_Y200] has a reported phosphorylation enrichment of 0.582

----------
System: AncSZ
Measurement notes: phosphorylation enrichment, bacterial display (enrichment ratio); higher = better substrate or ligand; peptides without Tyr show the background
Readings of phosphorylation enrichment for the listed sequences
Give a plain numeric answer without units written out.

Sample records with phosphorylation enrichment:
item_sequence="SDFFAYSPVQE [H6PD_Y449_R453Q_YF]" measured_number=1.44
item_sequence="NTDETYCIDNE [TUBB2B_Y200]" measured_number=1.47

The sequence listed as VVIMLYGVDSR [PKD1_Y3143_G3139V] has a reported phosphorylation enrichment of 1.29

The sequence listed as CTTIHYNFICN [TP53_Y234_M237I_YF] has a reported phosphorylation enrichment of 0.895

The sequence listed as FQKNIYSEELR [LMNA_Y211] has a reported phosphorylation enrichment of 1.01

The sequence listed as ARKRKYFKKHE [NFIX_Y40] has a reported phosphorylation enrichment of 0.602

The sequence listed as VCDSDYSASRW [LRP5_Y1552] has a reported phosphorylation enrichment of 1.16

The sequence listed as GLAELYEFKKK [CKAP5_Y1854_YF] has a reported phosphorylation enrichment of 0.534

The sequence listed as GNLQEYLTRHV [TGFBR2_Y336] has a reported phosphorylation enrichment of 0.794

The sequence listed as PPAPRYHDSAV [LZTR1_Y119_H121D] has a reported phosphorylation enrichment of 0.73

The sequence listed as FVSLIYTNFEA [GSTP1_Y109_I105V_YF] has a reported phosphorylation enrichment of 1.78

The sequence listed as DTSKMYIPHTD [EXPH5_Y782] has a reported phosphorylation enrichment of 0.624

The sequence listed as VNFGAYINFFK [GLB1_Y488_D491Y_YF] has a reported phosphorylation enrichment of 1.38

----------
Tested target: Fyn (UniProt P06241)
Measurement notes: phosphorylation enrichment, bacterial display (enrichment ratio); higher = better substrate or ligand; peptides without Tyr show the background
Readings of phosphorylation enrichment for the listed sequences
Give a plain numeric answer without units written out.

item_sequence="SGAWSYNTSTE [SELE_Y24]" measured_number=0.499
item_sequence="PMFTKYGNGLL [RPGRIP1L_Y196_S199G]" measured_number=0.494

Attention now turns to another entry.
The sequence listed as DKMEAYNINET [TEKT4_Y210_D213N] has a reported phosphorylation enrichment of 0.505

----------
Tested target: Fyn (UniProt P06241)
Measurement notes: phosphorylation enrichment, bacterial display (enrichment ratio); higher = better substrate or ligand; peptides without Tyr show the background
Measurement name: phosphorylation enrichment
Give a plain numeric answer without units written out.

Sample records with phosphorylation enrichment:
item_sequence="QGIPRYHSQSP [FOXF1_Y331]" tested_target="Fyn (UniProt P06241)" measurement_name="phosphorylation enrichment" measured_number=0.796
item_sequence="GADAIYDHVNE [UQCR10_Y44_I47V]" tested_target="Fyn (UniProt P06241)" measurement_name="phosphorylation enrichment" measured_number=4.52
item_sequence="SWSTSYSGFRC [NKAPL_Y91_Y96C_YF]" tested_target="Fyn (UniProt P06241)" measurement_name="phosphorylation enrichment" measured_number=0.643

Attention now turns to another entry.
The sequence listed as PSRKDYETYQP [CTNND2_Y1154] has a reported phosphorylation enrichment of 0.55

These entries and their values trace back to the supplement of paper PMC10065799.
